system: T-47D breast; experiment: NCI-60 one-dose screen, 48 h (100 = growth as untreated, 0 = no growth, -100 = all killed); conditions: 10 µM unless noted
About 83,000 compounds went through this panel and 20% of them were active in at least one assay; those are over-represented in the sample as a whole. Activity calls are given as the source filed them. How the source made its calls: active means growth percent below 10; inactive means the rest.
READOUT LABEL: growth

Recorded results for 4 compounds are shown here.
Query: What value of growth has been recorded for this entry: "CCOC(=O)C(C(=O)OCC)C1CCCCC1"
Response: 100% (inactive)

Query: What value of growth has been recorded for this entry: "COc1cc(OC)c2c(c1Cl)O[C@]1(C2=O)C(OCc2ccccc2)=CC(=O)C[C@H]1C"
Response: 8.09% (active)

Query: What value of growth has been recorded for this entry: BrC1CC(Br)c2c1c1c(c3c2C(Br)CC3Br)C(Br)CC1Br (stereo not given)
Response: 91.8% (inactive)

Query: What value of growth has been recorded for this entry: "O=C(Nc1ccc(Cl)cc1)Nc1nc2ccc(OC(F)(F)F)cc2o1"
Response: 41.1% (inactive)

Batch: growth for all items listed.
1. O=[N+]([O-])c1ccc2[nH]cc(-c3c4ccccc4cc4[nH]c5ccc([N+](=O)[O-])cc5c34)c2c1
2. CC(=O)OC1Oc2cc(C)c(C)cc2-c2oc(=O)c(-c3ccccc3)cc21 (stereo not given)
3. COCCOCCOCCOCCOc1ccc2c(c1)C(=O)c1nc3ncccc3c(=O)n1-2
4. COc1cc(/C=C\C(C)=N\Nc2ccccc2)ccc1O
5. C[C@]12CC[C@H](O)CC1=CC[C@@H]1[C@@H]2CC[C@]2(C)C(c3cccnc3)=CC[C@@H]12
6. COc1ccc(OC)c(CCn2cncc2-c2c[nH]c3cc(Br)ccc23)c1

Response:
["-10.2% (active)", "43.8% (inactive)", "11.3% (inactive)", "68% (inactive)", "55.6% (inactive)", "6.48% (active)"]

---

system: HCT-15 colon; test: NCI-60 one-dose screen, 48 h (100 = growth as untreated, 0 = no growth, -100 = all killed); details: 10 µM unless noted
The panel holds about 83,000 compounds, 20% with a hit somewhere; the sample as a whole holds those more often.
What growth was measured for each of the following?
Numbers only, in %.

Query: What value of growth has been recorded for this entry: "CCN1CCN(c2nc(NNC(=O)Cc3ccccc3)nc(N3CCN(C(c4ccccc4)c4ccccc4)CC3)n2)CC1"
Response: 22.9

Query: What value of growth has been recorded for this entry: "COc1ccc2c(c1)[n+](=O)c(C(=O)/C=C/c1cc(OC)c(OC)c(OC)c1)c(C)n2[O-]"
Response: 49.2

Query: What value of growth has been recorded for this entry: "O=Nc1c2cccnc2n2nnc3ccc(Cl)cc3c12"
Response: 24.5

Query: What value of growth has been recorded for this entry: "CCCCCCCCCCCCCCCCNC(=O)Nc1ccc2ccccc2c1"
Response: 103

Query: What value of growth has been recorded for this entry: CCN1CC2=C(Nc3nc(SC)[nH]c(=O)c3C2c2cc(OC)c(OC)c(OC)c2)/C(=C/c2cc(OC)c(OC)c(OC)c2)C1 (stereo not drawn)
Response: 104

Batch: growth for all items listed.
1. O=C(NCCNC(=O)Oc1cccc2ccccc12)Oc1cccc2ccccc12
2. Cc1cc(C)c(C(=O)c2cccs2)c(C)c1
3. COc1ccc2c(c1)sc1nc(-c3ccc(Br)cc3)cn12

Response:
[99.6, 102, 110]
